Provenance of the data: ChEMBL document CHEMBL3885861

Organism: Rattus norvegicus
EXPERIMENTAL PROTOCOL: Open TG-GATES - Regimen: Daily Repeat
Format: toxicity, organism-based, Sprague-Dawley
Parameters: regimen Daily Repeat, gender Male, age 6 weeks
APPLIED CONDITIONS: in vivo, po, 0 mg/kg, […], tissue Blood, route gavage, dose level Control, time 7 day
I'd appreciate it if you could supply Fbg values for the items below.
Please answer using a numeric value trailed by its unit.

Here's what some known entries look like.
CCOc1ccc(NC(=O)CC(C)O)cc1 (stereo not drawn)	262.4 mg/dL
CCCNC(=O)NS(=O)(=O)c1ccc(Cl)cc1 [CHLORPROPAMIDE]	294 mg/dL
CC1=C(/C=C/C(C)=C/C=C/C(C)=C/CO)C(C)(C)CCC1	304.8 mg/dL
CC(C)OC(=O)C(C)(C)Oc1ccc(C(=O)c2ccc(Cl)cc2)cc1 [FENOFIBRATE]	310.4 mg/dL
COc1ccc2[nH]c([S+]([O-])Cc3ncc(C)c(OC)c3C)nc2c1 (stereo not drawn)	226.4 mg/dL
CN1C(=O)CN=C(c2ccccc2)c2cc(Cl)ccc21	237.8 mg/dL
COC1=CC(=O)C[C@@H](C)[C@]12Oc1c(Cl)c(OC)cc(OC)c1C2=O	236 mg/dL
CCOC(=O)CCC(=O)O[C@H]1[C@H](O[C@@H]2[C@@H](C)[C@H](O[C@H]3C[C@@](C)(OC)[C@@H](O)[C@H](C)O3)[C@@H](C)C(=O)O[C@H](CC)[C@@](C)(O)[C@H](O)[C@@H](C)C(=O)[C@H](C)C[C@@]2(C)O)O[C@H](C)C[C@@H]1N(C)C [ERYTHROMYCIN ETHYLSUCCINATE]	307.2 mg/dL

# return Fbg for each item in the list
1. O=C(CCCN1CCC(O)(c2ccc(Cl)cc2)CC1)c1ccc(F)cc1
2. NC(N)=Nc1nc(CSCCC(N)=NS(N)(=O)=O)cs1
3. CN(C)CCN(Cc1cccs1)c1ccccn1
4. NNC(=O)c1ccncc1

Result ::
["216.4 mg/dL", "230 mg/dL", "320.8 mg/dL", "235 mg/dL"]

Query :: Look at this molecule and give its reported Fbg. CN(C)CCCN1c2ccccc2CCc2ccccc21
Result :: 292 mg/dL
